molecular target: NANOLUC® Luciferase (Oplophorus gracilirostris, UniProt Q9GV45, A31E/A60N/A81I/F95D/I117V/K70R/L54V/L99Q/M102K/N193R/P142E/Q151K/Q38R/Q45L/V71I/Y165I); test: Spectral measurements in various buffers with NANOLUC luciferase (Example 10); type: biochemical; settings: emission spectrum; NanoLuc; NanoGlo Buffer
Sequence (Q9GV45 28-196 with tags or gaps with the stated changes limits assumed): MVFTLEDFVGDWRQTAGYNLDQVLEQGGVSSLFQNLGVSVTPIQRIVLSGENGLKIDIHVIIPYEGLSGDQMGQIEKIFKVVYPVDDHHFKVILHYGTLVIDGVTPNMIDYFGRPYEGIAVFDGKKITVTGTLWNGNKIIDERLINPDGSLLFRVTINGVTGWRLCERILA
// boundary case: Width equal to 90 maps to not met; strictly smaller maps to met

# example entries with known answers
N#Cc1ccc(-c2[nH]c(-c3ccccc3)cn3c(=O)c(Cc4ccco4)nc2-3)s1 [AS-262]    not met
Oc1ccc(-c2cn3c(O)c(Cc4ccccc4)nc3c(Cc3ccccc3)n2)cc1 [Coelenterazine-H]    met
O=c1c(Cc2ccco2)nc2c(-c3ccnc4ccccc34)[nH]c(-c3ccc(O)cc3)cn1-2 [AS-360]    not met
O=c1c(Cc2ccco2)nc2c(-c3ccnc4ccccc34)[nH]c(-c3ccccc3)cn1-2 [AS-310]    not met
O=c1c(Cc2ccco2)nc2c(Cc3ccccc3)[nH]c(-c3ccccc3)cn1-2 [Furimazine]    met

Regarding O=c1c(Cc2ccco2)nc2c(-c3ccccc3)[nH]c(-c3ccccc3)cn1-2 [AS-174] , kindly confirm whether its Width is beneath 90.
met

Regarding N#Cc1ccc(-c2[nH]c(-c3ccc(O)cc3)cn3c(=O)c(Cc4ccco4)nc2-3)s1 [AS-353] , kindly confirm whether its Width is beneath 90.
not met

----------
List of NanoGlo (spectral peak, Table 4) values.
biological target: NANOLUC® Luciferase (Oplophorus gracilirostris, UniProt Q9GV45, A31E/A60N/A81I/F95D/I117V/K70R/L54V/L99Q/M102K/N193R/P142E/Q151K/Q38R/Q45L/V71I/Y165I); assay: Spectral measurements in various buffers with NANOLUC luciferase (Example 10); type: biochemical; conditions: NanoLuc; NanoGlo buffer
Please give only the number in your answer, with no unit.

O=c1c(Cc2ccco2)nc2c(-c3ccnc4ccccc34)[nH]c(-c3ccc(O)cc3)cn1-2    589

Look up NanoGlo (spectral peak, Table 4) for this compound: Oc1ccc(-c2cn3c(O)c(Cc4ccccc4)nc3c(Cc3ccccc3)n2)cc1
466

Look up NanoGlo (spectral peak, Table 4) for this compound: O=c1c(Cc2ccco2)nc2c(Cc3ccccc3)[nH]c(-c3ccccc3)cn1-2
463

----------
List of Low values.
target: NANOLUC® Luciferase (Oplophorus gracilirostris, UniProt Q9GV45, A31E/A60N/A81I/F95D/I117V/K70R/L54V/L99Q/M102K/N193R/P142E/Q151K/Q38R/Q45L/V71I/Y165I); experiment: Spectral measurements in various buffers with NANOLUC luciferase (Example 10); type: biochemical; details: emission spectrum; NanoLuc; NanoGlo Buffer

See these solved cases before continuing.
N#Cc1ccc(-c2[nH]c(-c3ccc(O)cc3)cn3c(=O)c(Cc4ccco4)nc2-3)s1 [AS-353]    550
N#Cc1ccc(-c2[nH]c(-c3ccccc3)cn3c(=O)c(Cc4ccco4)nc2-3)s1 [AS-262]    535
O=c1c(Cc2ccco2)nc2c(-c3ccnc4ccccc34)[nH]c(-c3ccccc3)cn1-2 [AS-310]    526
O=c1c(Cc2ccco2)nc2c(Cc3ccccc3)[nH]c(-c3ccccc3)cn1-2 [Furimazine]    433

Look up Low for this compound: O=c1c(Cc2ccco2)nc2c(-c3ccccc3)[nH]c(-c3ccccc3)cn1-2 [AS-174]
460

Look up Low for this compound: O=c1c(Cc2ccco2)nc2c(-c3ccnc4ccccc34)[nH]c(-c3ccc(O)cc3)cn1-2 [AS-360]
538

Look up Low for this compound: Oc1ccc(-c2cn3c(O)c(Cc4ccccc4)nc3c(Cc3ccccc3)n2)cc1 [Coelenterazine-H]
433
